- Tested on: HCT-116
- TEST PROTOCOL: Antiproliferative activity against human HCT116 cells assessed as reduction in cell viability after 72 hrs by MTT assay
- Format: functional, cell-based
- MEASUREMENT CONTEXT: HCT-116, 72 h
pIC50: −log10 of the molar value.
Recorded pIC50 values for a group of compounds are listed next.

- LINE NOTATION: "CCCCCCCC(=O)SCC/C=C/[C@H]1NC(=O)[C@H](C(C)C)NC(=O)[C@]2(C)CSC(=N2)c2csc(n2)CNC(=O)C1(F)F"
  STUDY TARGET: "HCT-116"
  READOUT RELATION: "<"
  pIC50: 5.00
- LINE NOTATION: "CCCCCCCC(=O)SCC/C(F)=C/[C@@H]1CC(=O)NCc2nc(cs2)C2=N[C@@](C)(CS2)C(=O)N[C@@H](C(C)C)C(=O)O1"
  STUDY TARGET: "HCT-116"
  READOUT RELATION: "="
  pIC50: 6.77
- LINE NOTATION: "CCCCCCCC(=O)SCC/C=C(\\F)[C@H]1CC(=O)NCc2nc(cs2)C2=N[C@@](C)(CS2)C(=O)N[C@@H](C(C)C)C(=O)O1"
  STUDY TARGET: "HCT-116"
  READOUT RELATION: "<"
  pIC50: 5.00
- LINE NOTATION: "CCCCCCCC(=O)SCC/C=C(\\F)[C@@H]1CC(=O)NCc2nc(cs2)C2=N[C@@](C)(CS2)C(=O)N[C@@H](C(C)C)C(=O)O1"
  STUDY TARGET: "HCT-116"
  READOUT RELATION: "="
  pIC50: 6.09
- LINE NOTATION: "CCCCCCCC(=O)SCC/C=C(\\F)[C@@H]1CC(=O)NCc2nc(cs2)C2=N[C@@](C)(CS2)C(=O)N[C@@H](C(C)C)C(=O)N1"
  STUDY TARGET: "HCT-116"
  READOUT RELATION: "="
  pIC50: 5.18
- LINE NOTATION: "CCCCCCCC(=O)SCC(F)(F)/C=C/[C@@H]1CC(=O)NCc2nc(cs2)C2=N[C@@](C)(CS2)C(=O)N[C@@H](C(C)C)C(=O)O1"
  STUDY TARGET: "HCT-116"
  READOUT RELATION: "<"
  pIC50: 5.00

---

- STUDY TARGET: Histone deacetylase 8 (Homo sapiens, UniProt Q9BY41)
- Sequence (Q9BY41 whole entry): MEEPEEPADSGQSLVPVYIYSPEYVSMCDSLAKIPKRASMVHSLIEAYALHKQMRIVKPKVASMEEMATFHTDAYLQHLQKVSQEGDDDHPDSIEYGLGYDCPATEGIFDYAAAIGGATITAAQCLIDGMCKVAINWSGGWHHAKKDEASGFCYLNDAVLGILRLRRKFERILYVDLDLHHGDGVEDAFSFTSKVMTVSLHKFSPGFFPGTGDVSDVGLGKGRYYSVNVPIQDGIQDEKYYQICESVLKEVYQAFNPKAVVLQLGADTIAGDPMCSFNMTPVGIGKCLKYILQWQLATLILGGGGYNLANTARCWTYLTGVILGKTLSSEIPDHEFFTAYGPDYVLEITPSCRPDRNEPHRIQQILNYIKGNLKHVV
READOUT KIND: IC50 (nM)

- LINE NOTATION: "CC(C)[C@@H]1NC(=O)[C@]2(C)CSC(=N2)c2csc(n2)CNC(=O)C[C@H](/C(F)=C/CCS)OC1=O"
  READOUT KIND: "IC50"
  UNIT STRING: "nM"
  MEASUREMENT: 378
- LINE NOTATION: "CC(C)[C@@H]1NC(=O)[C@]2(C)CSC(=N2)c2csc(n2)CNC(=O)C(F)(F)[C@@H](/C=C/CCS)NC1=O"
  READOUT KIND: "IC50"
  UNIT STRING: "nM"
  MEASUREMENT: 166
- LINE NOTATION: "CC(C)[C@@H]1NC(=O)[C@]2(C)CSC(=N2)c2csc(n2)CNC(=O)C[C@@H](/C(F)=C/CCS)NC1=O"
  READOUT KIND: "IC50"
  UNIT STRING: "nM"
  MEASUREMENT: 27.1
